These measurements were taken from patent US20080306107A1.

Biological target: hVR1 (Homo sapiens)
Construct: expressed in transfected cells
Sequence (Q8NER1 whole entry): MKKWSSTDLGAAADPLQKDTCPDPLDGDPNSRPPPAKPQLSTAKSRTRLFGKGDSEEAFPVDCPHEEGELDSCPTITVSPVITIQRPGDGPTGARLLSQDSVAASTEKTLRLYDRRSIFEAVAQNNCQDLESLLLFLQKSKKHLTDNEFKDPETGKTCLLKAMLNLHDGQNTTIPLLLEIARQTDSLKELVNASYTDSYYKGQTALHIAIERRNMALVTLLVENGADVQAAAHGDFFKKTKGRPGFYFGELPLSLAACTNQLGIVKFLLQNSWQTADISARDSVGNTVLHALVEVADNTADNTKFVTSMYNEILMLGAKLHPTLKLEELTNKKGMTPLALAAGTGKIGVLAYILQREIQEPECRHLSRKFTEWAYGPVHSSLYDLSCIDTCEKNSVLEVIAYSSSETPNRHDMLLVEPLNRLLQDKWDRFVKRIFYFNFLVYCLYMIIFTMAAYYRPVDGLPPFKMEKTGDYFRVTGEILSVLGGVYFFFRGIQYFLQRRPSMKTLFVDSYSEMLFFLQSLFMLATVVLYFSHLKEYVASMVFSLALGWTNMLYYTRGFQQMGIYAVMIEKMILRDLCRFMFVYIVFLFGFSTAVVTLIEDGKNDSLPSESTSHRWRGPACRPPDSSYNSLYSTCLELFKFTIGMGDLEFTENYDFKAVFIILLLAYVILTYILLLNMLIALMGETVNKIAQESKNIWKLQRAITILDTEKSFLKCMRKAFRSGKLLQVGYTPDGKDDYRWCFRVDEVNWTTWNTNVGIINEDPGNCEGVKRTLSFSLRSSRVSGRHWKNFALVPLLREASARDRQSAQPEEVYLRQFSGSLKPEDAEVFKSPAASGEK
Assay: hVR1 FLIPR (Fluorometric Image Plate Reader) screening assay, IC50 determination
Format: cell-based
Settings: transfected CHO cells stably expressing hVR1; Fluo-4 calcium fluorescence; agonist 50 nM capsaicin or MES buffer pH 5.2
Method: 1. hVR1 FLIPR (Fluorometric Image Plate Reader) Screening Assay […] For IC50 determinations the fluorescence is read using FLIPR filter 1 (em 520-545 nM). […] This consequently leading to a reduction in fluorescence signal and providing a reduced fluorescence reading, compared with no compound, buffer controls. Data is exported by the FLIPR program as a sum of fluorescence calculated under the curve upon the addition of capsaicin. […]
measurement label: IC50 (nM)

A: Cc1cc(C(F)(F)F)c2c(N)c(C(=O)NCCc3ccccc3)sc2n1
B: Cc1cc(C(F)(F)F)c2c(N)c(C(=O)NCCc3ccccc3C)sc2n1
Lookup: Field: lower IC50 | Options: A / B I would appreciate it if you answered with the label of your choice.
Found: B
